Origin of values: paper PMC11314063

# assay.explanation: SRB cytotoxicity assay, hepatocyte HL-7702
# Format: cell-based, human
# setup.conditions: SRB assay, 48 h, human hepatocyte, mean ± SD; read-out: IC50 Cytotoxicity HL-7702
measure: IC50 at 48 h

Solved entries (count: 2):
**Query** Provide measured IC50 at 48 h value, entry: C=CCCCCC[C@H](O)[C@@H](O)[C@H](C#CC#CCCC)OC [Compound 29]
**Result** > 200 µM

**Query** Provide measured IC50 at 48 h value, entry: CC#CC#CC#CC=CC1OCCCC1OC(C)=O (stereo not drawn) [Compound 24]
**Result** > 200 µM

Turning now to a further compound:
**Query** Provide measured IC50 at 48 h value, entry: CC#CC#CC#C/C=C/CCC(CCO)O[C@@H]1O[C@H](CO)[C@@H](O)[C@H](O)[C@H]1O (stereo partly drawn) [Compound 25]
**Result** > 200 µM
